These measurements were taken from paper PMC9833666.

- Tested on: Single-donor human red blood cells
- assay text: Hemolysis assay
- Type: cell-based
Bridge positions count the residues as written; N and C are the ends. Ends that are not written are not given here.
result type: hemolysis
// return the numeric value with its unit appended

# annotated cases, reported hemolysis shown
CRVKINIDNRSRRVKLQVQC (disulfide 1-20 (inferred)) [SySA-6] | 0.66%
CRVRINIDNRSGRVKLEVQC (disulfide 1-20 (inferred)) [SySA-87] | 4.63%
CVRVRVNNRGGGVRITLQVC (disulfide 1-20 (inferred)) [SySA-24] | 0.38%
CRIRIDIDNRGRTVRLEVQC (disulfide 1-20 (inferred)) [SySA-28] | 0.0423%

# hemolysis measured on Single-donor human red blood cells for item CVRVRLDNRGGGLRISLEVC (disulfide 1-20 (inferred)) [SySA-2] = 0.57%

* * *

- System: Escherichia coli W3110
- Type: cell-based
- measurement conditions: E. coli W3110, MH medium
Bridge positions count the residues as written; N and C are the ends. Ends that are not written are not given here.
result type: Ec W3110 MIC MH

Some sequences with known Ec W3110 MIC MH results, for comparison:
CLRIRLNNRRSRVRISVEVC (disulfide 1-20 (inferred)) [SySA-52] | > 256 µg/mL
CVRVRVNNRGGGVRITLQVC (disulfide 1-20 (inferred)) [SySA-24] | > 256 µg/mL

Looking up CLRIRVDNRGSGVKVTLEVC (disulfide 1-20 (inferred)) [SySA-57] , I see its Ec W3110 MIC MH listed as > 256 µg/mL

* * *

The following sequences are shown together with reported Ec W3110 MIC MH values.
- System: Escherichia coli W3110
- Format: cell-based
- measurement conditions: E. coli W3110, MH medium
Bridge positions count the residues as written; N and C are the ends. Ends that are not written are not given here.

RGGRLCYCRRRFCVCVGR (disulfide (positions not given here)) [Protegrin] | 0.5 µg/mL

Next:
Ec W3110 MIC MH in this record for CRIRIDVNNRSGTLKLQVQC (disulfide 1-20 (inferred)) [SySA-36] : > 256 µg/mL
